Recorded Emax by entry
Target: sGC α1/β1 heterodimer stably expressed in CHO-K1 cells (CHO-K1/sGC) (Homo sapiens, UniProt Q02108+Q02153)
Construct: expressed in transfected cells
Sequence (Q02108 whole entry): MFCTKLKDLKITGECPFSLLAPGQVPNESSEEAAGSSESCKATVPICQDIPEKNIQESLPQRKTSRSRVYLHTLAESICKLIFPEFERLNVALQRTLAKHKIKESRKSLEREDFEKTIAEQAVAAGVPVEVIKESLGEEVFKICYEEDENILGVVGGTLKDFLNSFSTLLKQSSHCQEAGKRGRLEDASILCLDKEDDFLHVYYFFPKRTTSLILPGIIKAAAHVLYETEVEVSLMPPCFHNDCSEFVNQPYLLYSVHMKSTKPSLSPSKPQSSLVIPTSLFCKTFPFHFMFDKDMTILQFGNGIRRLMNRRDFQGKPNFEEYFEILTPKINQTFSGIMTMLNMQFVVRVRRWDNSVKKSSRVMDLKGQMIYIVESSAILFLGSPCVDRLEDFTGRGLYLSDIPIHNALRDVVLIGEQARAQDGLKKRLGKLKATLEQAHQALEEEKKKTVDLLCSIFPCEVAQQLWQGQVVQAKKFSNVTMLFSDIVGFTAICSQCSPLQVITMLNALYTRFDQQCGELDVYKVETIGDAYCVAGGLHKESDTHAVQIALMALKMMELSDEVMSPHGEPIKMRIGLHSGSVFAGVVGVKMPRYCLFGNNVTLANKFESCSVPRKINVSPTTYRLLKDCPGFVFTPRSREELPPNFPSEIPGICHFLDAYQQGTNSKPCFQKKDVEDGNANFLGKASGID
Sequence (Q02153 whole entry): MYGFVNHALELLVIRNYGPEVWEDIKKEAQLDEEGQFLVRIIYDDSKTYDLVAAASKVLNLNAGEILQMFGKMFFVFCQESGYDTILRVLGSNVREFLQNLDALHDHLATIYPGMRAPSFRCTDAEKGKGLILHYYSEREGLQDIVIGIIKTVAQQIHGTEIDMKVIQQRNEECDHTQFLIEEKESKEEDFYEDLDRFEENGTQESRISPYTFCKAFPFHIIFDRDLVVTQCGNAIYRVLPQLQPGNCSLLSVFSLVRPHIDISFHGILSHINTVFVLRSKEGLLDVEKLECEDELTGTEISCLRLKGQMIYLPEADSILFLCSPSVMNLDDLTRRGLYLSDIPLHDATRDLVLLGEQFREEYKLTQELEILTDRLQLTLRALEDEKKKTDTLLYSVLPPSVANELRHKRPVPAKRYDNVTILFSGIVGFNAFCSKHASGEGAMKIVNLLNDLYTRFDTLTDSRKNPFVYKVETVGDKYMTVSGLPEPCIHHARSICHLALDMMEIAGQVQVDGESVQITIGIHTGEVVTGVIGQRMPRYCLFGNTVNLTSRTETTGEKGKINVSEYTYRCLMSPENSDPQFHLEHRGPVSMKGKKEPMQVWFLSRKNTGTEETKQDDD
Experiment: Cell-based sGC functional assay (CASA assay), cGMP generation by HTRF
Conditions: CHO-K1, maximum cGMP production of Compound A set to 100% activation; read-out: % Act. (percent activation relative to Compound A)
Just the number please, in %, no unit attached.

Reference set, count: 5
{"compound": "CC1(c2ccc(F)cc2)C(=O)Nc2nc(-c3cn4ccnc4c(Oc4c(F)ccc(F)c4F)n3)nc(N)c21 (stereo not shown)", "value measured": 89}
{"compound": "CC1(c2ccccc2)C(=O)Nc2nc(-c3cn4ccnc4c(Oc4ccccc4F)n3)nc(N)c21 (stereo not shown)", "value measured": 107}
{"compound": "CC1(c2ccccc2)C(=O)Nc2nc(-c3cn4ccnc4c(Oc4cc(F)cc(F)c4F)n3)nc(N)c21 (stereo not shown) [Example 12B]", "value measured": 99}
{"compound": "CC1(c2ccc(F)cn2)C(=O)Nc2nc(-c3cn4ccnc4c(OCC4CC(F)(F)C4)n3)nc(N)c21 (stereo not shown) [Example 33B]", "value measured": 112}
{"compound": "CC1(c2ccc(F)cc2)C(=O)Nc2nc(-c3cn4ccnc4c(Oc4ccc(F)c(F)c4)n3)nc(N)c21 (stereo not shown) [Example 18A]", "value measured": 98}

In: Report Emax, nothing else, for this compound: CC1(c2ccc(Cl)cc2)C(=O)Nc2nc(-c3cn4ccnc4c(OC4CCC(F)(F)CC4)n3)nc(N)c21 (stereo not shown) [Example 28A]
Out: 139

In: Report Emax, nothing else, for this compound: CC1(c2ccc(F)cc2)C(=O)Nc2nc(-c3cn4ccnc4c(Oc4ccccc4)n3)nc(N)c21 (stereo not shown)
Out: 124

---

Recorded EC50 by entry
Biological target: sGC α1/β1 heterodimer stably expressed in CHO-K1 cells (CHO-K1/sGC) (Homo sapiens, UniProt Q02108+Q02153)
Construct: expressed in transfected cells
Assay: Cell-based sGC functional assay (CASA assay), cGMP generation by HTRF
Settings: CHO-K1/sGC cells, 1 hr at 37° C., 4P fit; presence or absence of DETA-NO not given; read-out: IP (nM) (inflection point)

Reference set, count: 3
{"molecule": "CC1(c2ccc(Cl)cc2)C(=O)Nc2nc(-c3cn4ccnc4c(NCC4CCCOC4)n3)nc(N)c21 (single isomer, unassigned; fast eluting) [Example 72A]", "measure": "EC50", "value measured": "1080 nM"}
{"molecule": "CC1(c2ccc(F)cc2)C(=O)Nc2nc(-c3cn4ccnc4c(OC4CCCC4)n3)nc(N)c21 (stereo not shown) [Example 46A]", "measure": "EC50", "value measured": "912 nM"}
{"molecule": "COCCNc1nc(-c2nc(N)c3c(n2)NC(=O)C3(C)c2ccc(Cl)cc2)cn2ccnc12 (stereo not shown) [Example 40A]", "measure": "EC50", "value measured": "85 nM"}

Turning to the following molecule.
In: Report EC50, nothing else, for this molecule: CC1(c2ccc(Cl)cc2)C(=O)Nc2nc(-c3cn4ccnc4c(Oc4cc(F)ccc4F)n3)nc(N)c21 (stereo not shown) [Example 27A]
Out: 47 nM

---

Biological target: sGC α1/β1 heterodimer stably expressed in CHO-K1 cells (CHO-K1/sGC) (Homo sapiens, UniProt Q02108+Q02153)
Construct: expressed in transfected cells
Experiment: Cell-based sGC functional assay (CASA assay), cGMP generation by HTRF
Settings: CHO-K1/sGC cells, 1 hr at 37° C., 4P fit; presence or absence of DETA-NO not given; read-out: IP (nM) (inflection point)
Recorded EC50 by entry
Just the number please, in nM, no unit attached.

Reference set, count: 2
{"compound": "CCCOc1nc(-c2nc(N)c3c(n2)NC(=O)C3(C)c2ccc(Cl)cc2)cn2ccnc12 (centres unmarked) [Example 49A]", "EC50 (nM)": 30}
{"compound": "CC1(c2ccc(F)cc2)C(=O)Nc2nc(-c3cn4ccnc4c(NCC(F)(F)C(F)(F)F)n3)nc(N)c21 (centres unmarked) [Example 34A]", "EC50 (nM)": 164}

In: Report EC50, nothing else, for this compound: CC1(c2ccc(Cl)cc2)C(=O)Nc2nc(-c3cn4ccnc4c(OCC4CCCCO4)n3)nc(N)c21 (single isomer, unassigned; slow eluting) [Example 68B]
Out: 633

In: Report EC50, nothing else, for this compound: CC1(c2ccc(F)cc2)C(=O)Nc2nc(-c3cn4ccnc4c(Oc4ccccc4)n3)nc(N)c21 (centres unmarked)
Out: 28

In: Report EC50, nothing else, for this compound: CC(CNc1nc(-c2nc(N)c3c(n2)NC(=O)C3(C)c2ccc(F)cc2)cn2ccnc12)C(F)(F)F (racemic)
Out: 291

In: Report EC50, nothing else, for this compound: CC1(c2ccc(F)cc2)C(=O)Nc2nc(-c3cn4ccnc4c(OCCC4CC(F)(F)C4)n3)nc(N)c21 (centres unmarked) [Example 42A]
Out: 1350

In: Report EC50, nothing else, for this compound: CC1(c2ccccc2)C(=O)Nc2nc(-c3cn4ccnc4c(OCC(F)(F)C(F)(F)F)n3)nc(N)c21 (centres unmarked)
Out: 416
